Tgt: c-Src SH2
Run Description: SH2 binding enrichment of the phosphorylated peptide, bacterial display (enrichment ratio); higher = better substrate or ligand; peptides without Tyr show the background;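 note: peptide library displayed on the E. coli surface as eCPX fusions, selected cells deep-sequenced, score is each peptide's frequency after selection divided by its frequency in the input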
Quantity Name: SH2 binding enrichment

Observe how each entry below is paired with its result.
* SDVNKYSTAFG [GJB3_Y16_G12D] | 0.617
* TQTPPYVKKHR [LARP1B_Y457_P462R] | 0.954
* QPSPSYDSSRG [TCF12_Y70] | 0.393
* RPSRWYQFPVA [ANOS1_Y259_R262P] | 1.71

A = PEVRRCVLPLN [RPE65_Y368_Y368C]
B = EADRKYEEVAC [TPM3_Y163_R168C]
C = IWGKKYPTCNS [PTPRZ1_Y53_N48I]
Asked: Give the ascending ranking of the items by reported SH2 binding enrichment. Lab note: record answer as labels in requested order.
Given back: A, C, B

A = FGSGNYNVFGN [HNRNPA2B1_Y300_D302V_YF]
B = CTLLPYFSAPV [DGKE_Y269_R273P_YF]
C = PLQSEYSSIST [ITGB4_Y1760_T1764S]
Asked: hey, can you rank those sequences up there by SH2 binding enrichment? biggest number first please Lab note: record answer as labels in requested order.
Given back: C, A, B

P = LARDMDDKEFF [MET_Y1230_Y1230D_YF]
Q = KQLYAYKMLMA [TMC2_Y209]
Asked: Given the two records P and Q , choose the one whose SH2 binding enrichment value is lower. Pick one and reply with its label.
Given back: P

P = GLRYGYGGLGG [KRTAP20-2_Y15_V17G]
Q = KMATAYIRRMS [BCO1_Y264]
R = CENCHYPILPL [LCK_Y25_V28L]
Asked: Give the ascending ranking of the items by reported SH2 binding enrichment. Lab note: record answer as labels in requested order.
Given back: Q, P, R
(Q: 0.389, P: 0.568, R: 0.912)

a = VVTFSYKPAGN [RBL2_Y544_P547A]
b = DEWFLYKMRDI [CPS1_Y879_K875E]
Asked: In the pair a and b , the larger recorded SH2 binding enrichment belongs to which? Pick one and reply with its label.
Given back: a
